Examples of binders with documented BT474 pHER3 IC50 follow.
- assay.target: human HER3 endogenously expressed on human cancer cells (SK-Br-3, BT-474, MCF7) (human, UniProt P21860 20-1342)
- test: cell-based or functional assay
Please state the figure in pM; there is no need to write the unit.

These solved cases illustrate the format of a correct answer.
{"binder": "MOR13654 (antibody, human IgG1, lambda, V domains shown, Tested as IgG) VH: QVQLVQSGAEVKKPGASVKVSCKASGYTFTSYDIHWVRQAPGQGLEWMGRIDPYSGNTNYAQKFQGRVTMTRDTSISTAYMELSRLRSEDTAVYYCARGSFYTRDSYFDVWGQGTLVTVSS VL: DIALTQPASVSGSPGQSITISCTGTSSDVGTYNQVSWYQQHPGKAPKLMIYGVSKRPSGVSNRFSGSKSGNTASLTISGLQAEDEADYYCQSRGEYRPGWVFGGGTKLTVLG", "readout.name": "BT474 pHER3 IC50", "uom": "pM", "observed.result": 195}
{"binder": "MOR12922 (antibody, human IgG1, lambda, V domains shown) VH: QVQLVQSGAEVKKPGASVKVSCKASGYTFTGYYMHWVRQAPGQGLEWMGVIDPYSGWTEYAQKFQGRVTMTRDTSISTAYMELSRLRSEDTAVYYCARGSFYTRDSYFDVWGQGTLVTVSS VL: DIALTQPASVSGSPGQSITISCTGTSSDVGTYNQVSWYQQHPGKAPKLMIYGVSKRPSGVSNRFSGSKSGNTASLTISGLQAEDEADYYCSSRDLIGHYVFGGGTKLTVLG", "readout.name": "BT474 pHER3 IC50", "uom": "pM", "observed.result": 702}
{"binder": "MOR13658 (antibody, human IgG1, lambda, V domains shown, Tested as IgG) VH: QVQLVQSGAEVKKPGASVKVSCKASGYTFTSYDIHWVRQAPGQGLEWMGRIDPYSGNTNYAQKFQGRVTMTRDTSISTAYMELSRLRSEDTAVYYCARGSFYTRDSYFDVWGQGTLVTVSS VL: DIALTQPASVSGSPGQSITISCTGTSSDVGTYNQVSWYQQHPGKAPKLMIYGVSKRPSGVSNRFSGSKSGNTASLTISGLQAEDEADYYCASADHSYHTVFGGGTKLTVLG", "readout.name": "BT474 pHER3 IC50", "uom": "pM", "observed.result": 571}
{"binder": "MOR12514 (antibody, human IgG1, lambda, V domains shown, Tested as IgG) VH: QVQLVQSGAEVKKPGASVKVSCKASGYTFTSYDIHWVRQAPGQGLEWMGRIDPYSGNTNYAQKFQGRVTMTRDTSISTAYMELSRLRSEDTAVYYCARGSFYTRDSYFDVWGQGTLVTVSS VL: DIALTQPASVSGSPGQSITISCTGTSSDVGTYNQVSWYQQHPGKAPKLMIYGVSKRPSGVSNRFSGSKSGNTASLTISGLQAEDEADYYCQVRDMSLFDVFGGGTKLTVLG", "readout.name": "BT474 pHER3 IC50", "uom": "pM", "observed.result": 707}

# BT474 pHER3 IC50 (binder: MOR12606 (antibody, human IgG1, kappa, V domains shown, Tested as IgG) VH: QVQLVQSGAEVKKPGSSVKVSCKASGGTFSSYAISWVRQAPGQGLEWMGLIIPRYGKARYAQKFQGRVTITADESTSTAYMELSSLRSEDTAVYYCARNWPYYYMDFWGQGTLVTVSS VL: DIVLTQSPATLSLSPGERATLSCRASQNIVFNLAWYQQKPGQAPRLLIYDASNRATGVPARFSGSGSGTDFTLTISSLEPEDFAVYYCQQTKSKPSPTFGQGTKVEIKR ) is 108
